B1: SAM and SH3 domain-containing protein 1, residues 630 to 700; numbered along this chain, O94885 (parent)
chain: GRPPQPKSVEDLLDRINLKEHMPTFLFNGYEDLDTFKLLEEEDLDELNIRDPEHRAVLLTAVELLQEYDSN

Variants of: B1
PROCEDURE_TEXT: abundance fitness (aPCA) (normalised: wild type 0, dead -1); higher = more abundant; growth selection in yeast, the domain comes from the species named
CONDITION_CONTEXT: Homo sapiens
abundance fitness overview
// no unit string in output, number only

These recorded examples may help you get a feel for the data.
## Task Need abundance fitness, item E41N
## Result -0.408

## Task Need abundance fitness, item Y30D
## Result -0.705

## Task Need abundance fitness, item N48Q
## Result -0.393

## Task Need abundance fitness, item L44M
## Result -0.702

## Task Need abundance fitness, item F36A
## Result -0.717

The record that follows has no abundance fitness shown yet.
## Task Need abundance fitness, item L33F
## Result -0.697
